Tested on: HepG2 B6 cells (STAT-sPAP reporter)
assay: OSM-GST mutant driven sPAP production in HepG2 B6 assay
Assay type: cell-based, human
property-label: Expt 2 EC50 (µg/mL)
Please state the figure in µg/mL; there is no need to write the unit.

Value lookup for Expt 2 EC50; key = (4) Y10A: OSM-GST fusion, alanine for Tyr 10 (protein, left off: a dimerising Fc or GST; large carriers; small tags and cut ends) AAIGSCSKEARVLLGQLQKQTDLMQDTSRLLDPYIRIQGLDVPKLREHCRERPGAFPSEETLRGLGRRGFLQTLNATLGCVLHRLADLEQRLPKAQDLERSGLNIEDLEKLQMARPNILGLRNNIYCMAQLLDNSDTAEPTKAGRGASQPPTPTPASDAFQRKLEGCRFLHGYHRFMHSVGRVFSKWGESPNRSRR
0.082
